- METHOD_NOTES: qHTS for Inhibitors of human tyrosyl-DNA phosphodiesterase 1 (TDP1): qHTS in cells in absence of CPT; further: nearly all actives have a fitted effect of over 55% in size
- CONDITION_SUMMARY: DT40 Tdp1-/- hTDP1 cells, no CPT, ATP luminescence, 48 h
Hit rate of the full screen: of about 420,000 compounds, about 64,000 (15%) were called active. Roughly 27% stayed inconclusive and do not appear here. The call rests on the fitted dose curve; in most records, active means well fitted inhibition curve with a large enough effect; inconclusive means small, poorly fitted or top-dose-only effect; inactive means flat fitted curve, though single readings scatter. These entries were drawn from the full list.
Mark one answer only. Choices: class 1 (active), class 0 (inactive)

Observe how each entry below is paired with its result.
[
  {
    "MOLECULE": "COc1cc(NC(=O)C2CC(c3ccccc3O)=NO2)c(OC)cc1Cl (configuration not stated)",
    "CLASSIFICATION": "class 0"
  },
  {
    "MOLECULE": "Cc1ccc(C)c(S(=O)(=O)N2CCCOC2CNC(=O)C(=O)NC2CCCCC2)c1 (configuration not stated)",
    "CLASSIFICATION": "class 0"
  },
  {
    "MOLECULE": "C=CCC1=C/C(=C\\c2c(N)n3nc(CC(=O)N4CCOCC4)sc3nc2=O)C=C(OC)C1=O",
    "CLASSIFICATION": "class 0"
  },
  {
    "MOLECULE": "CC(=O)N1c2ccc(S(=O)(=O)N(C)CC(=O)N(C)Cc3ccccc3)cc2CC1C (configuration not stated)",
    "CLASSIFICATION": "class 0"
  },
  {
    "MOLECULE": "CC(C)(C)c1ccc(C(=O)NCc2ccco2)cc1",
    "CLASSIFICATION": "class 0"
  },
  {
    "MOLECULE": "CCc1nc2c(OCC(=O)C(C)(C)C)cccn2c1N(C)C(=O)c1ccccc1F",
    "CLASSIFICATION": "class 0"
  }
]

# lookup: test call for CCc1nc2c(OCC(N)=O)cccn2c1N(C)C(=O)c1ccc(OC)cc1
class 0

# lookup: test call for COc1ccccc1-c1cc(C(F)(F)F)nc(S(=O)(=O)CCCC(=O)Nc2ccc(F)cc2F)n1
class 1

# lookup: test call for C1=C(N2CCOCC2)/C(=C/c2nc3ccccc3[nH]2)CC1
class 1
